Below, each entry is listed alongside its reported pIC50.
Target: Vps34 (Homo sapiens)
Sequence (Q8NEB9 whole entry, species assumed): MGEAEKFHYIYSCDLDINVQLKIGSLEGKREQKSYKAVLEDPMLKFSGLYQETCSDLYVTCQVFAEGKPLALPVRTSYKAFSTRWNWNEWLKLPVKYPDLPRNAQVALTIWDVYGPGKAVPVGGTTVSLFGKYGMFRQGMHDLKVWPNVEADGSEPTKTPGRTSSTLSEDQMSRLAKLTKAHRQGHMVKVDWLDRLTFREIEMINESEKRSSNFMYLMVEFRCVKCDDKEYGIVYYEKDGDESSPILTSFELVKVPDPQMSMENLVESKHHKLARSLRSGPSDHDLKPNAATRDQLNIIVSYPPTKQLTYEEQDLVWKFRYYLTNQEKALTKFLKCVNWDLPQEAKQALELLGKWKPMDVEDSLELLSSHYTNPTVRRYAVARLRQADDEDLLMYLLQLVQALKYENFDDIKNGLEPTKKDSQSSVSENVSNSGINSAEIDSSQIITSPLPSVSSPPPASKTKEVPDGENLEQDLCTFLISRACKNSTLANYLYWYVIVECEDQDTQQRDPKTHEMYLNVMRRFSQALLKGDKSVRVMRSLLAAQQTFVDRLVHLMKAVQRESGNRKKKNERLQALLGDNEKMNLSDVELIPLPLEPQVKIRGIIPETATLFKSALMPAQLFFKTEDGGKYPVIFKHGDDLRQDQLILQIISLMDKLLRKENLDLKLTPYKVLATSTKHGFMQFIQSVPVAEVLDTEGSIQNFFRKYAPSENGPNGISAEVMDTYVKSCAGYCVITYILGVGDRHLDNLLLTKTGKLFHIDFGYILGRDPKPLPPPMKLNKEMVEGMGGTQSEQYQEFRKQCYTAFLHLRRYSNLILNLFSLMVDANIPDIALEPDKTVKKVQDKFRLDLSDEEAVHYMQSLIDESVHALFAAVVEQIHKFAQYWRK
Assay: Kinase Glo Luminescent Kinase Assay (Kglo), assay C
Assay type: biochemical
Settings: read-out: Assay C VPS34 IC50
pIC50: −log10 of the molar value. Counter-ions that a name gives are not always drawn.

Tell me the measured pIC50 of Cc1ncc(-c2nc(-c3cc(S(=O)(=O)NCC4CCOCC4)ccc3C)cnc2N)s1 [Example 45.2] , please.
5.22

Continuing:
Tell me the measured pIC50 of Cc1noc(-c2nc(-c3cc(S(=O)(=O)NCC(C)(C)CO)ccc3C)cnc2N)n1 [Example 92] , please.
< 5.04

Tell me the measured pIC50 of Cc1ccc(S(=O)(=O)NCCN)cc1-c1cnc(N)c(-n2cncn2)n1 [Example 33, trifluoroacetic acid salt] , please.
< 5.00

Tell me the measured pIC50 of Cc1cc(-c2nc(-c3cc(S(=O)(=O)NCCC(C)(O)C(F)(F)F)ccc3C)cnc2N)ccn1 (stereo not shown) [Example 129.13] , please.
< 5.04

Tell me the measured pIC50 of Cc1ccc(S(=O)(=O)NCC(C)(C)O)cc1-c1cnc(N)c(-c2noc(C3CC3)n2)n1 [Example 91] , please.
< 5.02

Tell me the measured pIC50 of Cc1cn(-c2nc(-c3cc(S(=O)(=O)N[C@H]4CC[C@H](O)CC4)ccc3C)cnc2N)cn1 [Example 56] , please.
5.45

Tell me the measured pIC50 of Cc1cc(-c2nc(-c3cc(S(=O)(=O)NC[C@H]4CCCO4)ccc3C)cnc2N)ccn1 [Example 129.12] , please.
< 5.04

Tell me the measured pIC50 of Cc1ccc(S(=O)(=O)NCC[C@@H](O)C(F)(F)F)cc1-c1cnc(N)c(-c2cn(C)nc2C)n1 (single isomer, unassigned) [Example 52b] , please.
< 5.00

Tell me the measured pIC50 of CCN1CCC[C@@H]1CNS(=O)(=O)c1ccc(C)c(-c2cnc(N)c(-c3cnc(C)s3)n2)c1 [Example 41] , please.
5.11

Tell me the measured pIC50 of Cc1ncc(-c2nc(-c3cc(S(=O)(=O)NC[C@H]4C[C@H](O)C4)ccc3C)cnc2N)s1 [Example 20b] , please.
6.40

Tell me the measured pIC50 of Cc1ccc(S(=O)(=O)NC2CCC(CO)CC2)cc1-c1cnc(N)c(-n2cncn2)n1 (stereo not shown) [Example 127.6] , please.
< 5.00

Tell me the measured pIC50 of Cc1ccc(S(=O)(=O)NC2CCC(F)(F)CC2)cc1-c1cnc(N)c(-c2cnn(C)c2)n1 [Example 54] , please.
< 5.04

----------
Target: PI 3-kinase alpha (Homo sapiens)
Sequence (P42336 whole entry): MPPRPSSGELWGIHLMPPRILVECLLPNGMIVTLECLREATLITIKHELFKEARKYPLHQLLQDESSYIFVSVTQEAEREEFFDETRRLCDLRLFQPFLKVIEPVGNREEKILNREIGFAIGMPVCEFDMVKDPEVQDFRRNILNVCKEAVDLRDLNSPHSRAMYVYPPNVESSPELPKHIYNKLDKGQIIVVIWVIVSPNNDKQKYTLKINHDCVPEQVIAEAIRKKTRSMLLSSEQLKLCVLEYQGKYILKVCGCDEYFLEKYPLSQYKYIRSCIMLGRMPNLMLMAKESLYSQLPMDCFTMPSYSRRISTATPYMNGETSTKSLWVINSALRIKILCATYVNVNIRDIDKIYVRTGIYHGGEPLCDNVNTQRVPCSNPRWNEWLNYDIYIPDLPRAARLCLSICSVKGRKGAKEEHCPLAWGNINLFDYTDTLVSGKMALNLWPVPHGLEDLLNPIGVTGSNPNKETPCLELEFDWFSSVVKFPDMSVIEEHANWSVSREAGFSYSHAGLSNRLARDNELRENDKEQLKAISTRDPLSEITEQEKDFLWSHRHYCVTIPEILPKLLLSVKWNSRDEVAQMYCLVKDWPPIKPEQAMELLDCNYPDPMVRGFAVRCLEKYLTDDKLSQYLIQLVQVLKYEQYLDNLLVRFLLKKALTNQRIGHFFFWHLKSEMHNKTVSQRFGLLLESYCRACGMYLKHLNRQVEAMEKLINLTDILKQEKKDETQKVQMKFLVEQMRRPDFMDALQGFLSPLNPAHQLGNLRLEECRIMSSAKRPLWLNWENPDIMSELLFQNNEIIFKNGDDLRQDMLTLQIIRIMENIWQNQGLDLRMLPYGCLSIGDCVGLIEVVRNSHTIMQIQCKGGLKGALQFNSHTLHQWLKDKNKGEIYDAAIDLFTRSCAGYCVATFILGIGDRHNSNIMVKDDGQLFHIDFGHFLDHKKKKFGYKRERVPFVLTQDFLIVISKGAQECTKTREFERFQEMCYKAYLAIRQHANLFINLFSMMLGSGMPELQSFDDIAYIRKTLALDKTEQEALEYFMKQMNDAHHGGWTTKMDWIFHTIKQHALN
Assay: Kinase Glo Luminescent Kinase Assay (Kglo), assay A
Assay type: biochemical
Conditions: read-out: Assay A PI3Kα IC50
Below, each entry is listed alongside its reported pIC50.
Units for pIC50: none; it is -log10 of a concentration expressed in mol/L.

In the examples that follow, each entry is paired with its recorded pIC50.
Tell me the measured pIC50 of `Cc1ccc(S(=O)(=O)N2CCCC(F)(F)C2)cc1-c1cnc(N)c(-n2cncn2)n1` , please.
6.54

Tell me the measured pIC50 of `Cc1ccc(S(=O)(=O)NCC(C)(C)CO)cc1-c1cnc(N)c(-n2cncn2)n1` , please.
6.46

Tell me the measured pIC50 of `CCOc1ccc(-c2nc(-c3cc(S(=O)(=O)NCCC(C)(C)O)ccc3C)cnc2N)cn1` , please.
6.24

Tell me the measured pIC50 of `Cc1ccc(S(=O)(=O)NCC(C)(C)O)cc1-c1cnc(N)c(-c2cc(C3CC3)no2)n1` , please.
6.55

Tell me the measured pIC50 of `COc1nc(-c2nc(-c3cc(S(=O)(=O)NCCC(C)(C)O)ccc3C)cnc2N)cs1` , please.
7.05

Tell me the measured pIC50 of `Cc1cnn(-c2nc(-c3cc(S(=O)(=O)N[C@H]4CC[C@H](O)CC4)ccc3C)cnc2N)c1` , please.
6.74

Tell me the measured pIC50 of `Cc1cc(-c2nc(-c3cc(S(=O)(=O)N[C@H]4CC[C@H](O)CC4)ccc3C)cnc2N)ccn1` , please.
6.74

Tell me the measured pIC50 of `Cc1ccc(S(=O)(=O)NCCC(C)(C)O)cc1-c1cnc(N)c(-c2cnn(CCN3CCOCC3)c2)n1` , please.
6.38

Continuing:
Tell me the measured pIC50 of `Cc1ccc(S(=O)(=O)NOCC(C)(C)O)cc1-c1cnc(N)c(-c2cn(C)nc2C)n1` , please.
6.55

Tell me the measured pIC50 of Cc1ccc(S(=O)(=O)NC[C@@H]2CCC(C)(C)O2)cc1-c1cnc(N)c(-n2cncn2)n1 [Example 127.39] , please.
5.85

Tell me the measured pIC50 of Cc1cc(-c2nc(-c3cc(S(=O)(=O)NCC4CCCO4)ccc3C)cnc2N)ccn1 (stereo not shown) , please.
6.46

Tell me the measured pIC50 of Cc1ncc(-c2nc(-c3cc(S(=O)(=O)N[C@H]4C[C@@H](O)C4)ccc3C)cnc2N)s1 [Example 43a] , please.
7.00

Tell me the measured pIC50 of `Cc1ccc(S(=O)(=O)NCCC(C)(C)O)cc1-c1cnc(N)c(-n2cnc(C3CC3)n2)n1` , please.
6.51

Tell me the measured pIC50 of `Cc1ncn(-c2nc(-c3cc(S(=O)(=O)NCCC(C)(C)O)ccc3C)cnc2N)n1` , please.
6.36

Tell me the measured pIC50 of `Cc1ccc(S(=O)(=O)NCC(C)(C)O)cc1-c1cnc(N)c(-c2ccoc2)n1` , please.
6.10

Tell me the measured pIC50 of Cc1ccc(S(=O)(=O)NC(C)CO)cc1-c1cnc(N)c(-n2cncn2)n1 (stereo not shown) , please.
5.77

Tell me the measured pIC50 of `Cc1cc(-c2nc(-c3cc(S(=O)(=O)NC[C@H]4CCNC4)ccc3C)cnc2N)ccn1` , please.
5.89

Tell me the measured pIC50 of `Cc1ccc(S(=O)(=O)NCC(F)(F)F)cc1-c1cnc(N)c(-n2cncn2)n1` , please.
6.52

Tell me the measured pIC50 of `Cc1ccc(S(=O)(=O)NOC(C)C)cc1-c1cnc(N)c(-n2cncn2)n1` , please.
6.44

Tell me the measured pIC50 of `Cc1ccc(S(=O)(=O)N[C@H]2CC[C@H](O)CC2)cc1-c1cnc(N)c(-n2cccn2)n1` , please.
6.41

Tell me the measured pIC50 of `Cc1ncn(-c2nc(-c3cc(S(=O)(=O)NCC(C)(C)O)ccc3C)cnc2N)n1` , please.
6.21

----------
Below, each entry is listed alongside its reported IC50.
Target: UniProt:P42336
Assay: Kinase Glo Luminescent Kinase Assay (Kglo), assay A
Type: biochemical
Conditions: read-out: Assay A PI3Kα IC50
Use nM as the unit, but write only the number.

Tell me the measured IC50 of Cc1cc(-c2nc(-c3cc(S(=O)(=O)NCC4CCCOC4)ccc3C)cnc2N)ccn1 (stereo not shown) , please.
210

Tell me the measured IC50 of `Cc1ccc(S(=O)(=O)NCCC(C)(C)O)cc1-c1cnc(N)c(-c2cnn(CCC(C)C)c2)n1` , please.
250

Tell me the measured IC50 of `Cc1ncc(S(=O)(=O)NCC(C)(C)O)cc1-c1cnc(N)c(-n2cncn2)n1` , please.
1700

Tell me the measured IC50 of `Cc1cc(F)c(S(=O)(=O)NCCC(C)(C)O)cc1-c1cnc(N)c(-c2cnn(C)c2)n1` , please.
320

----------
Below, each entry is listed alongside its reported pIC50.
Target: mTOR (Homo sapiens, UniProt P42345)
Assay: Lanthascreen kinase binding assay, assay G
Details: read-out: Assay G mTOR IC50
Units for pIC50: none; it is -log10 of a concentration expressed in mol/L.

In the examples that follow, each entry is paired with its recorded pIC50.
Tell me the measured pIC50 of `Cc1ccc(S(=O)(=O)NCCC(C)(C)O)cc1-c1cnc(N)c(-c2cc(C(F)(F)F)nn2C)n1` , please.
5.37

Tell me the measured pIC50 of `Cc1ccc(S(=O)(=O)NCC(C)(C)O)cc1-c1cnc(N)c(-c2cnn(C)n2)n1` , please.
5.26

Now for another entry.
Tell me the measured pIC50 of `Cc1ccc(S(=O)(=O)NOC(C)(C)C)cc1-c1cnc(N)c(-n2cncn2)n1` , please.
5.22

----------
Biological target: PI 3-kinase gamma (Homo sapiens)
Sequence (P48736 whole entry): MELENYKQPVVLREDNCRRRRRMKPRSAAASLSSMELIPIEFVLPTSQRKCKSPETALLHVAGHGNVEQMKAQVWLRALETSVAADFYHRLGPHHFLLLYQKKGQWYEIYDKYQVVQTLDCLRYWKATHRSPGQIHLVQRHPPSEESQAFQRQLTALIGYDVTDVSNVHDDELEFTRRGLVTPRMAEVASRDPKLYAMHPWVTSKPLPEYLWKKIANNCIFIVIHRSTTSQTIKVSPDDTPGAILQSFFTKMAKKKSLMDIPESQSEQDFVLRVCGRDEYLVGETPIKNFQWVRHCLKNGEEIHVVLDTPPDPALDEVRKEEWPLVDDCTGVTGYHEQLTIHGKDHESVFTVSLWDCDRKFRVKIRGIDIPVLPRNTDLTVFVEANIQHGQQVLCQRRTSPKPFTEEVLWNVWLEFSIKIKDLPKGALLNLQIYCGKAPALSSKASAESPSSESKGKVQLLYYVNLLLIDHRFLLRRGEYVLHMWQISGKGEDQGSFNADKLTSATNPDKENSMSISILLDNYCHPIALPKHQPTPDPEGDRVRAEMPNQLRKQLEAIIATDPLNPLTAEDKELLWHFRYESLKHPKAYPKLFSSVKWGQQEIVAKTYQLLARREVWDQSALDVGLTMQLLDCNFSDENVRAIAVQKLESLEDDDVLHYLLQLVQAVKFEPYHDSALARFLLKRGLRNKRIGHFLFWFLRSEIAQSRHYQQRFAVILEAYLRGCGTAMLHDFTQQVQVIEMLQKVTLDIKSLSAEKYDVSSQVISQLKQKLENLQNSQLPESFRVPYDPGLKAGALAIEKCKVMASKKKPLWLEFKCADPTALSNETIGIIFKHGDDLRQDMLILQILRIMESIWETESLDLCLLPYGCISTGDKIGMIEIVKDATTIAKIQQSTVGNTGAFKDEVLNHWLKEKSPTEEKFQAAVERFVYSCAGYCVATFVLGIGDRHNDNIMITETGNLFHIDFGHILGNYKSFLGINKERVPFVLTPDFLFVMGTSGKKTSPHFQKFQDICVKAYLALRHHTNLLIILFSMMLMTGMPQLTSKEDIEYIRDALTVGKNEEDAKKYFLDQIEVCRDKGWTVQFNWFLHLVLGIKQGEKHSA
Experiment: TR-FRET Adapta assay, assay E
Type: biochemical
Conditions: read-out: Assay E PI3Kγ IC50
Counter-ions that a name gives are not always drawn.
quantity kind: log10 of IC50 (log10 of the value in nM)
Each number you see is log10 of IC50, and the unit inside the log is nM.

Tell me the measured log10 of IC50 of `Cc1ccc(S(=O)(=O)NOC(C)(C)C)cc1-c1cnc(N)c(-n2cncn2)n1` , please.
1.52

Tell me the measured log10 of IC50 of `Cc1cc(F)c(S(=O)(=O)NCCC(C)(C)O)cc1-c1cnc(N)c(-c2cnn(C)c2)n1` , please.
1.59

Continuing:
Tell me the measured log10 of IC50 of `Cc1ccc(S(=O)(=O)NCC(C)(C)CO)cc1-c1cnc(N)c(-n2cncn2)n1` , please.
1.18

Tell me the measured log10 of IC50 of Cc1ccc(S(=O)(=O)NC[C@H]2CCNC2)cc1-c1cnc(N)c(-n2cncn2)n1 [Example 127.58, trifluoroacetic acid salt] , please.
1.62

Tell me the measured log10 of IC50 of `CCONS(=O)(=O)c1ccc(C)c(-c2cnc(N)c(-n3cncn3)n2)c1` , please.
1.28

Tell me the measured log10 of IC50 of `COc1cc(-c2nc(-c3cc(S(=O)(=O)NCCC(C)(C)O)ccc3C)cnc2N)ccn1` , please.
1.64

Tell me the measured log10 of IC50 of `Cc1ccc(S(=O)(=O)NCC(N)=O)cc1-c1cnc(N)c(-n2cncn2)n1` , please.
2.04

Tell me the measured log10 of IC50 of `Cc1ccc(S(=O)(=O)NCC2(CO)CCCCC2)cc1-c1cnc(N)c(-n2cncn2)n1` , please.
0.95

Tell me the measured log10 of IC50 of `CC[C@@H](CO)NS(=O)(=O)c1ccc(C)c(-c2cnc(N)c(-c3ccnc(C)c3)n2)c1` , please.
2.43
